target: Mushroom tyrosinase (Agaricus bisporus); construct: purchased Sigma-Aldrich (Shanghai, China); assay: Tyrosinase inhibitory activity assay (L-DOPA, absorbance 475 nm); type: biochemical; settings: initial concentration of 32 μM
ENDPOINT_LABEL: inhibition at 32 µM (%)
I only need the number, in %, no unit after it.

// worked examples, inhibition at 32 µM included
structure_string=O=C(CN1C(=O)S/C(=C\c2cccc(O)c2)C1=O)NCCc1c[nH]c2ccccc12 endpoint_label="inhibition at 32 µM" numeric_value=36.2
structure_string=COc1ccc(/C=C2\SC(=O)N(CC(=O)NCCc3c[nH]c4ccccc34)C2=O)cc1 endpoint_label="inhibition at 32 µM" numeric_value=1

Task item: Which inhibition at 32 µM is listed for O=C(CN1C(=O)S/C(=C\c2cccc(Cl)c2)C1=O)NCCc1c[nH]c2ccccc12 ?
Reply: 37.6

Task item: Which inhibition at 32 µM is listed for O=C(CN1C(=O)S/C(=C\c2ccccc2Cl)C1=O)NCCc1c[nH]c2ccccc12 ?
Reply: 16.8

Task item: Which inhibition at 32 µM is listed for COc1cccc(/C=C2\SC(=O)N(CC(=O)NCCc3c[nH]c4ccccc34)C2=O)c1 ?
Reply: 2

* * *

Listed next: entries and their corresponding inhibition at 32 µM.
target: Mushroom tyrosinase (Agaricus bisporus, UniProt C7FF04); construct: purchased Sigma-Aldrich (Shanghai, China); assay: Tyrosinase inhibitory activity assay (L-DOPA, absorbance 475 nm); assay type: biochemical; conditions: initial concentration of 32 μM
I only need the number, in %, no unit after it.

Task item: Which inhibition at 32 µM is listed for Cc1ccccc1/C=C1\SC(=O)N(CC(=O)NCCc2c[nH]c3ccccc23)C1=O ?
Reply: 19.3

Task item: Which inhibition at 32 µM is listed for O=C(CN1C(=O)S/C(=C\c2cccc(C(F)(F)F)c2)C1=O)NCCc1c[nH]c2ccccc12 ?
Reply: 4.5

* * *

target: Mushroom tyrosinase (Agaricus bisporus, UniProt C7FF04); construct: purchased Sigma-Aldrich (Shanghai, China); assay: Tyrosinase inhibitory activity assay (L-DOPA, absorbance 475 nm); format: biochemical; details: initial concentration of 32 μM
// map inhibition at 32 µM to label using range 1 (below 20%), range 2 (20% to below 30%), range 3 (30% or more)

Worked examples, 6 compounds total:
structure_string=Cc1ccc(/C=C2\SC(=O)N(CC(=O)NCCc3c[nH]c4ccccc34)C2=O)cc1 category_label="range 1"
structure_string=N#Cc1ccc(/C=C2\SC(=O)N(CC(=O)NCCc3c[nH]c4ccccc34)C2=O)cc1 category_label="range 2"
structure_string=O=C(CN1C(=O)S/C(=C\c2ccc(O)cc2)C1=O)NCCc1c[nH]c2ccccc12 category_label="range 2"
structure_string=O=C(CN1C(=O)S/C(=C\c2ccc(Cl)cc2)C1=O)NCCc1c[nH]c2ccccc12 category_label="range 3"
structure_string=O=C(CN1C(=O)S/C(=C\c2ccc([N+](=O)[O-])cc2)C1=O)NCCc1c[nH]c2ccccc12 category_label="range 1"
structure_string=N#Cc1cccc(/C=C2\SC(=O)N(CC(=O)NCCc3c[nH]c4ccccc34)C2=O)c1 category_label="range 3"

Task item: Hi there! Could you help me figure out the category for O=C(CN1C(=O)S/C(=C\c2ccccc2)C1=O)NCCc1c[nH]c2ccccc12 please?
Reply: range 1

Task item: Hi there! Could you help me figure out the category for O=C(CN1C(=O)S/C(=C\c2ccc(F)cc2)C1=O)NCCc1c[nH]c2ccccc12 please?
Reply: range 2

Task item: Hi there! Could you help me figure out the category for O=C(CN1C(=O)S/C(=C\c2ccccc2C(F)(F)F)C1=O)NCCc1c[nH]c2ccccc12 please?
Reply: range 1

Task item: Hi there! Could you help me figure out the category for COc1ccccc1/C=C1\SC(=O)N(CC(=O)NCCc2c[nH]c3ccccc23)C1=O please?
Reply: range 1

Task item: Hi there! Could you help me figure out the category for O=C(CN1C(=O)S/C(=C\c2cccc(F)c2)C1=O)NCCc1c[nH]c2ccccc12 please?
Reply: range 3

* * *

molecular target: Mushroom tyrosinase (Agaricus bisporus)
ENDPOINT_LABEL: IC50

Task item: Which IC50 is listed for N#Cc1cccc(/C=C2\SC(=O)N(CC(=O)NCCc3c[nH]c4ccccc34)C2=O)c1 ?
Reply: 11.2 µM

* * *

target: tyrosinase (Agaricus bisporus, UniProt C7FF04)
Sequence (C7FF04 1-392 limits assumed): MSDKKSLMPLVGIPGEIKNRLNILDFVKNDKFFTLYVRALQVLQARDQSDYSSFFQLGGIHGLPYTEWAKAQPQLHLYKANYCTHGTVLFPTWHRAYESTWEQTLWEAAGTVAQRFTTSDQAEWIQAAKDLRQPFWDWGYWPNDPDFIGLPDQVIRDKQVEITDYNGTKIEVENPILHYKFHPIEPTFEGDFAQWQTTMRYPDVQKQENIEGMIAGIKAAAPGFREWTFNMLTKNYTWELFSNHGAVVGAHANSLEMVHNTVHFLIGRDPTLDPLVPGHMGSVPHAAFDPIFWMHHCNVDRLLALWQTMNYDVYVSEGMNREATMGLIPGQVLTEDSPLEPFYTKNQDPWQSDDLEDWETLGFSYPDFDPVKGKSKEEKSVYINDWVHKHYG
ENDPOINT_LABEL: Ki (µM)
I only need the number, in µM, no unit after it.

Task item: Which Ki is listed for N#Cc1cccc(/C=C2\SC(=O)N(CC(=O)NCCc3c[nH]c4ccccc34)C2=O)c1 [5w] ?
Reply: 11.7

* * *

molecular target: Mushroom tyrosinase (Agaricus bisporus); construct: purchased Sigma-Aldrich (Shanghai, China); test: Tyrosinase inhibitory activity assay (L-DOPA, absorbance 475 nm); type: biochemical; conditions: initial concentration of 32 μM
Listed next: entries and their corresponding inhibition at 32 µM.
I only need the number, in %, no unit after it.

// worked examples, inhibition at 32 µM included
structure_string=O=C(CN1C(=O)S/C(=C\c2cccc([N+](=O)[O-])c2)C1=O)NCCc1c[nH]c2ccccc12 numeric_value=19.8
structure_string=O=C(CN1C(=O)S/C(=C\c2ccc(Br)cc2)C1=O)NCCc1c[nH]c2ccccc12 numeric_value=19.5
structure_string=Cc1cccc(/C=C2\SC(=O)N(CC(=O)NCCc3c[nH]c4ccccc34)C2=O)c1 numeric_value=33.2
structure_string=O=C(CN1C(=O)S/C(=C\c2ccccc2O)C1=O)NCCc1c[nH]c2ccccc12 numeric_value=26.9
structure_string=O=C(CN1C(=O)S/C(=C\c2ccccc2Br)C1=O)NCCc1c[nH]c2ccccc12 numeric_value=31.7
structure_string=O=C(CN1C(=O)S/C(=C\c2ccccc2F)C1=O)NCCc1c[nH]c2ccccc12 numeric_value=16.5

Task item: Which inhibition at 32 µM is listed for O=C(CN1C(=O)S/C(=C\c2ccc(C(F)(F)F)cc2)C1=O)NCCc1c[nH]c2ccccc12 ?
Reply: 3
